# Emax per entry
- Experimental system: UniProtKB P41145
- Protocol: Percent maximal stimulation in [35S]-GTP-gamma S binding assay mediated by the Opioid receptor kappa 1 in chinese Hamster Ovary (CHO)membranes
- Type: functional
Observation type: Emax (%)

O=C(CCCCCCCCCCC(=O)Oc1ccc2c(c1)[C@@]13CCCC[C@H]1[C@@H](C2)N(CC1CCC1)CC3)Oc1ccc2c(c1)[C@@]13CCCC[C@H]1[C@@H](C2)N(CC1CCC1)CC3: 90
O=C(CCC(=O)Oc1ccc2c(c1)[C@@]13CCCC[C@H]1[C@@H](C2)N(CC1CC1)CC3)Oc1ccc2c(c1)[C@@]13CCCC[C@H]1[C@@H](C2)N(CC1CC1)CC3: 70
O=C(CCC(=O)Oc1ccc2c(c1)[C@@]13CCCC[C@H]1[C@@H](C2)N(CC1CCC1)CC3)Oc1ccc2c(c1)[C@@]13CCCC[C@H]1[C@@H](C2)N(CC1CCC1)CC3: 70
COC(=O)CCCCCCCCC(=O)Oc1ccc2c(c1)[C@@]13CCCC[C@H]1[C@@H](C2)N(CC1CCC1)CC3: 90
O=C(/C=C/C(=O)Oc1ccc2c(c1)[C@@]13CCCC[C@H]1[C@@H](C2)N(CC1CCC1)CC3)Oc1ccc2c(c1)[C@@]13CCCC[C@H]1[C@@H](C2)N(CC1CCC1)CC3: 90
O=C(CCCCCCCC(=O)Oc1ccc2c(c1)[C@@]13CCCC[C@H]1[C@@H](C2)N(CC1CCC1)CC3)Oc1ccc2c(c1)[C@@]13CCCC[C@H]1[C@@H](C2)N(CC1CCC1)CC3: 80
O=C(CCCCCCCCC(=O)Oc1ccc2c(c1)[C@@]13CCCC[C@H]1[C@@H](C2)N(CC1CC1)CC3)Oc1ccc2c(c1)[C@@]13CCCC[C@H]1[C@@H](C2)N(CC1CC1)CC3: 90
O=C(CCCCCCC(=O)Oc1ccc2c(c1)[C@@]13CCCC[C@H]1[C@@H](C2)N(CC1CCC1)CC3)Oc1ccc2c(c1)[C@@]13CCCC[C@H]1[C@@H](C2)N(CC1CCC1)CC3: 80
O=C(CCCCCCCCC(=O)Oc1ccc2c(c1)[C@@]13CCCC[C@H]1[C@@H](C2)N(CC1CCC1)CC3)Oc1ccc2c(c1)[C@@]13CCCC[C@H]1[C@@H](C2)N(CC1CCC1)CC3: 60

###

The following compounds each carry a recorded IC50 for Mu-type opioid receptor (Homo sapiens).
Observation type: IC50 (nM)

O=C(CCCCCCCCCCC(=O)Oc1ccc2c(c1)[C@@]13CCCC[C@H]1[C@@H](C2)N(CC1CCC1)CC3)Oc1ccc2c(c1)[C@@]13CCCC[C@H]1[C@@H](C2)N(CC1CCC1)CC3: 100
O=C(CCCCCCC(=O)Oc1ccc2c(c1)[C@@]13CCCC[C@H]1[C@@H](C2)N(CC1CCC1)CC3)Oc1ccc2c(c1)[C@@]13CCCC[C@H]1[C@@H](C2)N(CC1CCC1)CC3: 90
O=C(CCCCCCCCC(=O)Oc1ccc2c(c1)[C@@]13CCCC[C@H]1[C@@H](C2)N(CC1CC1)CC3)Oc1ccc2c(c1)[C@@]13CCCC[C@H]1[C@@H](C2)N(CC1CC1)CC3: 90

###

- Experimental system: Mu-type opioid receptor (Homo sapiens)
- Sequence (P35372 whole entry): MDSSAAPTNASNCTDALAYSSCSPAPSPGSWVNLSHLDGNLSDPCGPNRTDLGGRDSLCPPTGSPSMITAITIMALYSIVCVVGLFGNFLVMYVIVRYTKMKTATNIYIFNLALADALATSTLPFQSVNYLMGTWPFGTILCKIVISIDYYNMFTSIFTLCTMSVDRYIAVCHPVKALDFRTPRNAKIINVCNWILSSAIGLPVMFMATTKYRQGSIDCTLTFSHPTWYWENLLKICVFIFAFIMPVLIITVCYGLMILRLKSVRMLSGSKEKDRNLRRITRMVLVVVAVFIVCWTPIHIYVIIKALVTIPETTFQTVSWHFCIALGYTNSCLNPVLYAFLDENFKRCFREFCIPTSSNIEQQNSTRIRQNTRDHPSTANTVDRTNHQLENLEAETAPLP
- Protocol: Percent maximal stimulation in [35S]-GTP-gamma S binding assay mediated by the Opioid receptor mu 1 in chinese Hamster Ovary (CHO)membranes
Observation type: Emax (%)

O=C(CCCCCCCC(=O)Oc1ccc2c(c1)[C@@]13CCCC[C@H]1[C@@H](C2)N(CC1CCC1)CC3)Oc1ccc2c(c1)[C@@]13CCCC[C@H]1[C@@H](C2)N(CC1CCC1)CC3: 57
COC(=O)CCCCCCCCC(=O)Oc1ccc2c(c1)[C@@]13CCCC[C@H]1[C@@H](C2)N(CC1CCC1)CC3: 60
O=C(/C=C/C(=O)Oc1ccc2c(c1)[C@@]13CCCC[C@H]1[C@@H](C2)N(CC1CCC1)CC3)Oc1ccc2c(c1)[C@@]13CCCC[C@H]1[C@@H](C2)N(CC1CCC1)CC3: 50
O=C(CCCCCCC(=O)Oc1ccc2c(c1)[C@@]13CCCC[C@H]1[C@@H](C2)N(CC1CCC1)CC3)Oc1ccc2c(c1)[C@@]13CCCC[C@H]1[C@@H](C2)N(CC1CCC1)CC3: 60
O=C(CCC(=O)Oc1ccc2c(c1)[C@@]13CCCC[C@H]1[C@@H](C2)N(CC1CCC1)CC3)Oc1ccc2c(c1)[C@@]13CCCC[C@H]1[C@@H](C2)N(CC1CCC1)CC3: 50
O=C(CCCCCCCCCCC(=O)Oc1ccc2c(c1)[C@@]13CCCC[C@H]1[C@@H](C2)N(CC1CCC1)CC3)Oc1ccc2c(c1)[C@@]13CCCC[C@H]1[C@@H](C2)N(CC1CCC1)CC3: 14
O=C(CCCCCCCCC(=O)Oc1ccc2c(c1)[C@@]13CCCC[C@H]1[C@@H](C2)N(CC1CCC1)CC3)Oc1ccc2c(c1)[C@@]13CCCC[C@H]1[C@@H](C2)N(CC1CCC1)CC3: 50
O=C(CCCCCCCCC(=O)Oc1ccc2c(c1)[C@@]13CCCC[C@H]1[C@@H](C2)N(CC1CC1)CC3)Oc1ccc2c(c1)[C@@]13CCCC[C@H]1[C@@H](C2)N(CC1CC1)CC3: 30
O=C(CCC(=O)Oc1ccc2c(c1)[C@@]13CCCC[C@H]1[C@@H](C2)N(CC1CC1)CC3)Oc1ccc2c(c1)[C@@]13CCCC[C@H]1[C@@H](C2)N(CC1CC1)CC3: 10

###

- Experimental system: UniProt P41145
- Protocol: Inhibitory activity in stimulating [35S]-GTP-gamma S binding mediated by the Opioid receptor kappa 1 in chinese Hamster Ovary (CHO) cell membranes
pIC50: −log10 of the molar value.
Observation type: pIC50

O=C(/C=C/C(=O)Oc1ccc2c(c1)[C@@]13CCCC[C@H]1[C@@H](C2)N(CC1CCC1)CC3)Oc1ccc2c(c1)[C@@]13CCCC[C@H]1[C@@H](C2)N(CC1CCC1)CC3: 5.62

###

- Experimental system: Kappa-type opioid receptor (Homo sapiens, UniProt P41145)
- Sequence (P41145 whole entry): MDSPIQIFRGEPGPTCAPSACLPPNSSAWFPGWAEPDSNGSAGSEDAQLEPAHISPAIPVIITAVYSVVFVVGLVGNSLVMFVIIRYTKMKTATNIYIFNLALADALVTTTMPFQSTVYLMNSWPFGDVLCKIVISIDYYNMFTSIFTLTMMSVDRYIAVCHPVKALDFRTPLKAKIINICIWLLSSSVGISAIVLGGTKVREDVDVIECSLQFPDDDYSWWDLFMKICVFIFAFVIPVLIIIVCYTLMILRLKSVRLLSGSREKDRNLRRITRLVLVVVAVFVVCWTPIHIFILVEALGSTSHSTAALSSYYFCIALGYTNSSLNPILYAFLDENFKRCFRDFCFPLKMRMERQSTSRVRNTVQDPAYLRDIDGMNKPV
- Protocol: Inhibitory activity in stimulating [35S]-GTP-gamma S binding mediated by the Opioid receptor kappa 1 in chinese Hamster Ovary (CHO) cell membranes was determined
Note to self: EC50 under 1 nM means 1 (yes), ties and anything higher get 0 (no).

COC(=O)CCCCCCCCC(=O)Oc1ccc2c(c1)[C@@]13CCCC[C@H]1[C@@H](C2)N(CC1CCC1)CC3: 0 (no)
Oc1ccc2c(c1)[C@@]13CCCC[C@H]1[C@@H](C2)N(CC1CCC1)CC3: 0 (no)
O=C(CCC(=O)Oc1ccc2c(c1)[C@@]13CCCC[C@H]1[C@@H](C2)N(CC1CC1)CC3)Oc1ccc2c(c1)[C@@]13CCCC[C@H]1[C@@H](C2)N(CC1CC1)CC3: 0 (no)
O=C(CCCCCCCCCCC(=O)Oc1ccc2c(c1)[C@@]13CCCC[C@H]1[C@@H](C2)N(CC1CCC1)CC3)Oc1ccc2c(c1)[C@@]13CCCC[C@H]1[C@@H](C2)N(CC1CCC1)CC3: 0 (no)
O=C(CCCCCCCCC(=O)Oc1ccc2c(c1)[C@@]13CCCC[C@H]1[C@@H](C2)N(CC1CCC1)CC3)Oc1ccc2c(c1)[C@@]13CCCC[C@H]1[C@@H](C2)N(CC1CCC1)CC3: 1 (yes)
O=C(CCCCCCCCC(=O)Oc1ccc2c(c1)[C@@]13CCCC[C@H]1[C@@H](C2)N(CC1CC1)CC3)Oc1ccc2c(c1)[C@@]13CCCC[C@H]1[C@@H](C2)N(CC1CC1)CC3: 0 (no)

###

- Experimental system: Opioid receptors; delta & kappa (Homo sapiens) (UniProt P41145+P41143)
- Sequence (P41143 whole entry, looked up): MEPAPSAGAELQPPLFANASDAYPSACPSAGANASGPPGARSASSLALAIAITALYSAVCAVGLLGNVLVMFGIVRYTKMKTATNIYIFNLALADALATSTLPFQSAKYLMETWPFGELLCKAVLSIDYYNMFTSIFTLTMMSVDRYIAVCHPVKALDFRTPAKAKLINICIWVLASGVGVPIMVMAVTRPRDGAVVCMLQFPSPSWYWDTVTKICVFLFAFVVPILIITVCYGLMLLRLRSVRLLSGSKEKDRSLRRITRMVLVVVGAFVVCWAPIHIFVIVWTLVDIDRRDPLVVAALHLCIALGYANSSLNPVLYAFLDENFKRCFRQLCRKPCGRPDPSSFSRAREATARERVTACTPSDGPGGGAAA
- Sequence (P41145 whole entry, looked up): as the sequence (P41145 whole entry) above
- Protocol: Selective inhibitory activity was determined against kappa & delta opioid receptor in chinese Hamster Ovary (CHO) cell membranes
Observation type: Selectivity

c1cc2c(cc1OCCCCOc1ccc3c(c1)[C@@]14CCCC[C@H]1[C@@H](C3)N(CC1CCC1)CC4)[C@@]13CCCC[C@H]1[C@@H](C2)N(CC1CCC1)CC3: 40
O=C(/C=C/C(=O)Oc1ccc2c(c1)[C@@]13CCCC[C@H]1[C@@H](C2)N(CC1CCC1)CC3)Oc1ccc2c(c1)[C@@]13CCCC[C@H]1[C@@H](C2)N(CC1CCC1)CC3: 120
O=C(CCCCCCCCC(=O)Oc1ccc2c(c1)[C@@]13CCCC[C@H]1[C@@H](C2)N(CC1CCC1)CC3)Oc1ccc2c(c1)[C@@]13CCCC[C@H]1[C@@H](C2)N(CC1CCC1)CC3: 90

###

- Experimental system: Kappa-type opioid receptor (Homo sapiens)
- Protocol: Inhibitory activity in stimulating [35S]-GTP-gamma S binding mediated by the Opioid receptor kappa 1 in chinese Hamster Ovary (CHO) cell membranes was determined
pEC50: −log10 of the molar value.
Observation type: pEC50

O=C(CCCCCCC(=O)Oc1ccc2c(c1)[C@@]13CCCC[C@H]1[C@@H](C2)N(CC1CCC1)CC3)Oc1ccc2c(c1)[C@@]13CCCC[C@H]1[C@@H](C2)N(CC1CCC1)CC3: 7.96
O=C(/C=C/C(=O)Oc1ccc2c(c1)[C@@]13CCCC[C@H]1[C@@H](C2)N(CC1CCC1)CC3)Oc1ccc2c(c1)[C@@]13CCCC[C@H]1[C@@H](C2)N(CC1CCC1)CC3: 8.64
O=C(CCC(=O)Oc1ccc2c(c1)[C@@]13CCCC[C@H]1[C@@H](C2)N(CC1CCC1)CC3)Oc1ccc2c(c1)[C@@]13CCCC[C@H]1[C@@H](C2)N(CC1CCC1)CC3: 8.35
O=C(CCCCCCCC(=O)Oc1ccc2c(c1)[C@@]13CCCC[C@H]1[C@@H](C2)N(CC1CCC1)CC3)Oc1ccc2c(c1)[C@@]13CCCC[C@H]1[C@@H](C2)N(CC1CCC1)CC3: 7.82
